From: PubChem BioAssay AID1063

Assay name: Leishmania major promastigote growth inhibition, primary screen (AID 1063);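 further: promastigotes grown with compound for 44 hours at 28 °C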
Condition summary: Leishmania major promastigotes, resazurin fluorescence viability; at 10 µM
The campaign covered roughly 200,000 compounds. About 18,000 (9%) were called active. No stated cut-off is given here; in the data, active means inhibition above about 50%; inactive means the rest. What follows is part of a selection rich in actives, with near analogues and random picks from the rest.
Hi there, use one of these labels in your reply, thanks! active, inactive

O=C(/C=C/Sc1ncn[nH]1)c1ccc(Cl)cc1 | active
Cc1cccc(NC(=S)NC23CN4CN(CN(C4)C2)C3)c1 | inactive
CCOc1ccc(/C=N/Nc2nncc(-c3ccccc3)n2)cc1OC | inactive

Returns: the outcome recorded for CCN(CC)CCOCCOc1ccc(Cl)c2ccccc12 in this assay. active

For CC(C)(C)c1ccc(C(=O)CSc2ncn[nH]2)cc1 , which call appears in the assay record? inactive

# fetch the recorded call for CCOc1ccc(S(=O)(=O)N2CCCCCC2)c2ccccc12 here inactive

I'd appreciate the recorded outcome for CCOC(=O)C1CCCN(C(=O)COc2ccc(N(C)S(=O)(=O)c3ccc(C)cc3)cc2)C1 (centres undefined) from this test. inactive

Answer briefly: the call reported for O=C(CSc1cccc2cccnc12)N/N=C/c1cccnc1 in this assay. active

Record request — test call for CC12CN(NC(=O)c3ccc(Cl)cc3)C3(C#N)CC1CCC23C (centres undefined) inactive

Please state the recorded outcome for this compound: Cc1[nH][nH]c(=O)c1C(c1ccc2c(c1)OCO2)c1c(C)[nH][nH]c1=O inactive

Per the assay record, what outcome was assigned to COCCCNC(=S)N1CCCC(c2nc3cc(C)c(C)cc3[nH]2)C1 (centres undefined) ? inactive

GET /call?item= CN(/C(=N/S(=O)(=O)c1cccs1)c1ccccc1)c1ccc(O)cc1 returns the recorded outcome of this test. inactive

Outcome? CNC(=O)/C(C#N)=C/c1c(F)cccc1Cl active

Lab log entry: Cc1[nH][nH]c(=O)c1C(c1ccc(-c2ccc(Cl)cc2)o1)c1c(C)[nH][nH]c1=O — outcome as called in the assay? active

Hi, do you know how CCC(C(=O)OCCN(CC)CC)c1ccccc1 (centres undefined) came out in this test? inactive

Which outcome did this test record for the compound O=C(/C=C/c1c(F)cccc1Cl)Nc1nn[nH]n1 ? inactive

Recorded test call requested for OCCN(Cc1ccccc1)Cc1ccc(Cl)cc1 active

# lookup: test call for CCOC(=O)NNC(=O)c1ccc(Cl)cc1 inactive

Write down the call the test reported for this compound. Item: CCN(CC)CCNS(=O)(=O)c1ccc(/C=C/C(=O)O)cc1 inactive

Per the records of this test, what outcome belongs to S=c1[nH]nc(Nc2ccccc2)s1 ? inactive

What was the test verdict on CC(O)CN(Cc1ccc(Cl)cc1)CC(C)O (centres undefined) ? inactive

Recorded test call requested for O=C(NCCOCc1ccc(Cl)cc1)c1ncn[nH]1 inactive

I'd appreciate the recorded outcome for Cc1ccc(C)c(Cn2nnc3c(=O)[nH]c(C(=O)Nc4ccc(F)cc4)nc32)c1 from this test. inactive

Given CN(C)CCOCCOc1ccc(Cl)c2ccccc12 , state the outcome it received in this test. active

###

Assay name: Leishmania major promastigote growth inhibition, primary screen (AID 1063);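 further: promastigotes grown with compound for 44 hours at 28 °C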
Condition summary: Leishmania major promastigotes, resazurin fluorescence viability; at 10 µM
In all, about 200,000 compounds went through this assay and about 18,000 (9%) were called active. No stated cut-off is given here; in the data, active means inhibition above about 50%; inactive means the rest. For the sample, actives were picked, then their nearest neighbours and some compounds at random.
Log the outcome using a class from active, inactive

Field: example entries. Status: answers known.
CCCCNC(=O)CCn1c(=S)[nH]c2cc3c(cc2c1=O)OCO3 | inactive
Cc1cccc(CSc2nc3c(c(=O)n2C)SCC3)c1 | inactive
O=C(Nc1cccc(NC(=O)N2CCN(c3ccccc3)CC2)c1)N1CCN(c2ccccc2)CC1 | inactive

Could you please tell me the result logged for CSCCC(NC(=O)c1ccc(=O)n(C)n1)c1nc2ccccc2[nH]1 (stereo unspecified) in this assay? inactive

Answer briefly: the call reported for CNC(=O)NC(=O)C(OC(=O)c1cccc(S(=O)(=O)N2CCCCC2)c1)c1ccccc1 (stereo unspecified) in this assay. active

Could you check what this test reported for COc1ccccc1C(=O)CSc1cccc[n+]1[O-] ? inactive

In this assay, the call recorded for CS(=O)(=O)Nc1cccc(-c2cn3ccccc3n2)c1 was what? inactive

###

Assay name: Leishmania major promastigote growth inhibition, primary screen (AID 1063);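 further: promastigotes grown with compound for 44 hours at 28 °C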
Condition summary: Leishmania major promastigotes, resazurin fluorescence viability; at 10 µM; hits give high values
Out of some 200,000 compounds screened, about 18,000 (9%) were called active. The full list was thinned out, with actives kept by preference.
Measured parameter: inhibition (%)
Supply the numeric figure in %, leaving out any unit text.

Entry O=C(NNC(=O)C1CCN(c2ncccn2)CC1)c1ccccc1 — recorded inhibition = -7.74

Kindly note the recorded inhibition for Cc1ccc(/C=N/NC(=O)C(NC(=O)c2ccccc2)c2n[nH]c(=O)c3ccccc23)cc1 (stereo not given) , which is -1.59

Data point: CCOc1cc(NS(=O)(=O)c2ccc(OC)cc2)c(OCC)cc1NC(C)=O ; inhibition = -2.08

get_value(item= Cc1ccc(/C=N/NC(=O)C2=NNC(c3ccccc3)(c3ccccc3)C2)c(O)c1 , readout=inhibition) returns 100

# inhibition (compound: Cc1ccc(-c2nn(-c3ccccc3)cc2/C=N/NC(=O)c2ccc3c(c2)OCO3)cc1 ) is 8.23

###

Assay name: Leishmania major promastigote growth inhibition, primary screen (AID 1063);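 further: promastigotes grown with compound for 44 hours at 28 °C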
Condition summary: Leishmania major promastigotes, resazurin fluorescence viability; at 10 µM; hits give high values
The campaign covered roughly 200,000 compounds. About 18,000 (9%) were called active. Shown is part of a subset that was picked to be rich in actives.
Measured parameter: inhibition (%)
Value expressed in %; do not type the unit.

Worked examples follow.
CN(CC(=O)Nc1ccc(S(=O)(=O)N2CCCC2)cc1)Cc1ccc(Cl)c(Cl)c1 | 92
CN(Cc1cccc2ncccc12)C(=O)CC1C(=O)NCCN1Cc1ccc(F)cc1 (stereo unspecified) | -8.65
COc1ccc(S(=O)(=O)N2CCN(C(=O)c3cc(C)oc3C)CC2)cc1 | 8.89
CC(C)(C)c1csc(NC2=NS(=O)(=O)c3ccccc32)n1 | -6.96
O=C(CSCc1ccc(Br)cc1)Nc1ccc(S(=O)(=O)N2CCCCCC2)cc1 | 6.78

Entry O=C(O)c1ccn(COc2ccc(Br)cc2)n1 ; inhibition = -6.55

Record summary for CC(CCc1ccccc1)NCC(O)c1cccc([N+](=O)[O-])c1 (stereo unspecified) : reported inhibition = 59.5

Per the records, this compound ( CS(=O)(=O)N(CC(=O)Nc1ccc(Cl)c(Cl)c1)C1CCCCC1 ) has inhibition equal to 15.8

Documented inhibition of CN(Cc1cc2cc(F)ccc2[nH]1)Cc1nc(-c2cnccn2)no1 : -6.82

The recorded inhibition for COc1ccc(CCNC(=O)C(=O)NCc2ccccc2C)cc1OC is -0.59

Lab book: inhibition of CCOC(=O)Cc1cc(=O)[nH]c(=O)[nH]1 noted as -1.79

###

Assay name: Leishmania major promastigote growth inhibition, primary screen (AID 1063);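 further: promastigotes grown with compound for 44 hours at 28 °C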
Condition summary: Leishmania major promastigotes, resazurin fluorescence viability; at 10 µM; hits give high values
Out of some 200,000 compounds screened, about 18,000 (9%) were called active. This is one part of a sample in which actives are shown more often than they occur.
We begin with a simple list: items and their reported inhibition.
Report the figure in % without appending any unit label.

Study these solved cases before continuing.
CC1=NN(C(=O)CCCc2ccccc2)C(O)(C(F)(F)F)C1 (stereo unspecified) | -11.2
O=C(CSc1c2c(nc3ccc(Cl)cc13)CCCC2)NCc1ccco1 | 39.9
Cc1noc(C)c1CSCC(=O)Nc1nc2ccc(Oc3ccccc3)cc2s1 | 2.23

Value of inhibition reported for the molecule CCc1ccc(/C=C2\SC(N3CCOCC3)=NC2=O)cc1 is 12.3

Noted for CCOC(=O)c1c(C2CC2)csc1NC(=O)CSCc1c(C)noc1C : its inhibition reads 100

Just so you know, measured inhibition for CCOC(=O)c1c(-c2cccc(C)c2)csc1NC(=O)c1c(-c2ccccc2)noc1C came out at 1.98

For O=C1N=C(N2CCOCC2)S/C1=C\C=C/c1ccccc1 the molecule record lists inhibition as 7.77

###

Listed here: items and their measured inhibition.
Assay name: Leishmania major promastigote growth inhibition, primary screen (AID 1063);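 further: promastigotes grown with compound for 44 hours at 28 °C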
Condition summary: Leishmania major promastigotes, resazurin fluorescence viability; at 10 µM; hits give high values
The campaign covered roughly 200,000 compounds. About 18,000 (9%) were called active. The sample holds actives, similar compounds and a random draw of the others, so the mix is not that of the screen.
Note: unit % is implicit; provide only the numeric part.

COC(=O)c1ccc(-n2cnc3ccccc32)nc1 | 25
Cc1cc(C(=O)NNC(=O)CCC2CCCCC2)c(C)o1 | -8.93
COc1ccc(C2=NN(c3ccccc3)C(c3cccs3)C2)cc1 (stereo unspecified) | 44.3
CC(C)(C)C(=O)CN1C2=NCCN2c2ccccc21 | -5.39
CNc1nc2c(C)cccn2c(=O)c1C=Nc1ccc(OC)cc1 | 1.72

Entry COc1ccc(OC)c(C2C3=C(N=c4s/c(=C\c5cccc(O)c5)c(=O)n42)c2ccccc2CC3)c1 (stereo unspecified) , inhibition reported as 75.7
